- ASSAY_DETAILS: Inhibition of Bacillus stearothermophilus alpha-glucosidase assessed as p-nitrophenol release by colorimetry
- Design: species or system Geobacillus stearothermophilus
Kindly state IC50 for each of the entries shown.
Number only, in µM; omit the unit.

Give recorded IC50. O=C(OC[C@@H](O)[C@@H](O)COC(=O)/C(Cc1ccc(O)cc1)=N\O)/C(Cc1ccc(O)cc1)=N\O [ASPERGILLUSOL A]
1060

Give recorded IC50. OC[C@H]1NC[C@H](O)[C@@H](O)[C@@H]1O [DUVOGLUSTAT]
0.45

Data provenance is ChEMBL document CHEMBL1154351.
